Values compiled from patent US20180291110A1.

# key: entry, value: koff
biological target: T1, human transferrin receptor (recombinant, for surface plasmon resonance) (human, UniProt P02786 89-760); experiment: SPR
T1 construct: also called huTfR; human transferrin receptor-biotinylated
T1 sequence (P02786 89-760 limits assumed): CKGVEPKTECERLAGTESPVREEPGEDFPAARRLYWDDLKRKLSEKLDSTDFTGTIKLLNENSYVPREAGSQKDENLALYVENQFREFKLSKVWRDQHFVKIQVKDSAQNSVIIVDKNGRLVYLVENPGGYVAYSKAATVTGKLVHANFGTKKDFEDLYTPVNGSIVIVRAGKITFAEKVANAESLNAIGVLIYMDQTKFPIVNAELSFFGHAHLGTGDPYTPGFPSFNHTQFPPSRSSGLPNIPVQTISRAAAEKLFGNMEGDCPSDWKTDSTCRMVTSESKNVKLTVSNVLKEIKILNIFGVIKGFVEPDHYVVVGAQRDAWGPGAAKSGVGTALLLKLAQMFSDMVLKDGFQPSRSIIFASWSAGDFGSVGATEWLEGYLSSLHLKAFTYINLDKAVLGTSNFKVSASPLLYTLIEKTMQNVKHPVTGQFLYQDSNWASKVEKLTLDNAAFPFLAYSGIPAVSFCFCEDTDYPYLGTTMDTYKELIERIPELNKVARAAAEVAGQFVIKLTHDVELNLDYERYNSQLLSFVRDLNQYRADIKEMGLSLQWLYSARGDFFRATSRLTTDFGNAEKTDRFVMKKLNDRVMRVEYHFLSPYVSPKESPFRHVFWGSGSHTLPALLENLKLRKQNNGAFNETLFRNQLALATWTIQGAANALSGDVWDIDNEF
Numbers only; they are read as s⁻¹.

Reference set, count: 4
binder	koff (s⁻¹)
4/94 SEQ ID NO 197 / murine VL (antibody, V domains shown) VH: QVQLVQSGAEVKKPGSSVKVSCKASGFNIKDTYIHWVIQAPGQGLEWMGRIDPANGDTKSDPKFQGRVTITADESTSTAYMELSSLRSEDTAVYYCVRDYLYPYYFDFWGQGTTVTVSS VL: KIVMTQSPKSMSMSVGERVTLNCRASESVDTYVSWYQQKPEQSPELLIYGASNRYTGVPDRFTGSGSATDFTLTISSVQAEDLADYYCGQTYNYPLTFGAGTKLELKR	0.000542
4/94 SEQ ID NO 195 / SEQ ID NO 207 (antibody, V domains shown) VH: QVQLVQSGAEVKKPGASVKVSCKASGFNIKDTYIHWVIQAPGQGLEWMGRIDPANGDTKSAPKFQVRVTITADTSTSTVYMELSSLRSEDTAVYYCVRDYLYPYYFDFWGQGTTVTVSS VL: KIVLTQSPGTLSLSPGERATLSCRASESVDTYVSWYQQKPGQAPRLLIYGASNRYTGVPDRFSGSGSGTDFTLTISRLEPEDFADYYCGQTYNYPLTFGQGTKLEI	0.000426
4/94 SEQ ID NO 200 / SEQ ID NO 201 (antibody, V domains shown) VH: EVQLVESGGGLVQPGGSLRLSCAASGFNIKDTYIHWVIQAPGKGLEWVGRIDPANGDTKSDPSVQVRATISADTSKNTAYLQMNSLRAEDTAVYYCVRDYLYPYYFDFWGQGTTVTVSS VL: KIQMTQSPSSLSASVGDRVTITCRASESVDTYVSWYQQKPGKAPKLLIYGASNRYTGVPSRFSGSGSGTDFTLTISSLQPEDFADYYCGQTYNYPLTFGQGTKLEI	0.000274
4/94 murine VH / SEQ ID NO 207 (antibody, V domains shown) VH: EVQLQQSGAVLVKPGASVKLSCPASGFNIKDTYIHWVIQRPEQGLEWIGRIDPANGDTKCDPKFQVKATITADTSSNTAYLQLSSLTSEDTAVYFCVRDYLYPYYFDFWGQGTTLTVSS VL: KIVLTQSPGTLSLSPGERATLSCRASESVDTYVSWYQQKPGQAPRLLIYGASNRYTGVPDRFSGSGSGTDFTLTISRLEPEDFADYYCGQTYNYPLTFGQGTKLEI	0.000156

Field: next binder
For record 4/94 SEQ ID NO 196 / SEQ ID NO 209 (antibody, V domains shown) VH: QVQLVQSGAEVKKPGASVKVSCKASGFNIKDTYIHWVIQAPGQGLEWMGRIDPANGDTKSDPKFQGRVTITADTSTSTVYMELSSLRSEDTAVYYCVRDYLYPYYFDFWGQGTTVTVSS VL: KIVLTQSPGTLSLSPGERATLSCRASESVDTYVSWYQQKPGQAPRLLIYGASNRYTGIPDRFSGSGSGTDFTLTISRLEPEDFADYYCGQTYNYPLTFGQGTKLEI the listed koff is 0.000452
